Source of measurements: patent US7521047

biological target: T1, HLA-DR (DRA*0101/DRB1*0401) on PRIESS cells (human, UniProt P01903 26-254; P01911 30-266); assay: cell-based or functional assay
T1 MHC II alpha: not shown
T1 MHC II beta: not shown
measurement.name: EC50 of cell killing, cross-linked Fab, bivalent agent (nM)
Express the result in nM but write the number alone.

MS-GPC-8-6-2 Fab (Fab, V domains shown, Fab: VH-CH1 with FLAG tag and STREP tag II, VL-CL; VH residue 1 is Q in Fab) VH: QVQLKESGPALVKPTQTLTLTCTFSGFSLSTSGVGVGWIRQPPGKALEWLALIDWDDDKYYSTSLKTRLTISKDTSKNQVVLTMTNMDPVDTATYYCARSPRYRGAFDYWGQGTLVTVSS VL: DIVLTQPPSVSGAPGQRVTISCSGSESNIGSNYVHWYQQLPGTAPKLLIYDNNQRPSGVPDRFSGSKSGTSASLAITGLQSEDEADYYCQSYDYDHYVFGGGTKLTVLG	8
MS-GPC-8-17 Fab (Fab, V domains shown, Fab: VH-CH1 with FLAG tag and STREP tag II, VL-CL; VH residue 1 is Q in Fab; also called 7BA) VH: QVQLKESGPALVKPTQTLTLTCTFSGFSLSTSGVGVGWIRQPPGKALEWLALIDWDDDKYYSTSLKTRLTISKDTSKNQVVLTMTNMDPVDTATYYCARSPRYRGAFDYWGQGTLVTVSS VL: DIVLTQPPSVSGAPGQRVTISCSGSSSNIGSNYVSWYQQLPGTAPKLLIYDNNQRPSGVPDRFSGSKSGTSASLAITGLQSEDEADYYCQSYDFSVYVFGGGTKLTVLG	16

QUERY: # lookup: EC50 of cell killing, cross-linked Fab, bivalent agent of MS-GPC-1 Fab (Fab, V domains shown, Fab from pMx9_Fab: VH-CH1 with FLAG tag and STREP tag II, VL-CL; VH residue 1 is Q in Fab; also called 17-Fab; 17) VH: QVQLKESGPALVKPTQTLTLTCTFSGFSLSTSGVGVGWIRQPPGKALEWLALIDWDDDKYYSTSLKTRLTISKDTSKNQVVLTMTNMDPVDTATYYCARQYGHRGGFDHWGQGTLVTVSS VL: DIVLTQPPSVSGAPGQRVTISCSGSSSNIGSNYVSWYQQLPGTAPKLLIYDNNQRPSGVPDRFSGSKSGTSASLAITGLQSEDEADYYCQSYDFNESVFGGGTKLTVLG
RESULT: 54
